Ref: patent US20250144049A1

- System: Healthy (GM08402) fibroblasts
- experimental-protocol: Erastin cytoprotection assay, healthy fibroblasts
- Assay type: cell-based, human
- settings: 2 μM erastin, 24 hours, FIG. 12
reported-metric: protective effect compared among test articles

compound=COC1=C(OC)C(=O)C(CCCCCCCCCC(F)(F)F)=C(C)C1=O system_tested="Healthy (GM08402) fibroblasts" reported_result="about equally protective"
compound="CC(C)=CCC/C(C)=C/CC/C(C)=C/CC[C@@](C)(O)CCC1=C(C)C(=O)C(C)=C(C)C1=O [Vatiquinone, reference compound]" system_tested="Healthy (GM08402) fibroblasts" reported_result="about equally protective"
compound=CC1=C(C)C(=O)C(CC[C@](C)(O)CCCCCCCCC(F)(F)F)=C(C)C1=O system_tested="Healthy (GM08402) fibroblasts" reported_result="about equally protective"
